molecular target: T1, human SIRPα1 expressed on cells (human, UniProt P78324 31-504); experiment: flow cytometry, ExpiCHO-S cells
T1 construct: whole, on cells; also called huSIRPα1; ExpiCHO-S (huSIRPα1)
T1 sequence (P78324 other isoform, or with tags, fused parts or gaps limits assumed): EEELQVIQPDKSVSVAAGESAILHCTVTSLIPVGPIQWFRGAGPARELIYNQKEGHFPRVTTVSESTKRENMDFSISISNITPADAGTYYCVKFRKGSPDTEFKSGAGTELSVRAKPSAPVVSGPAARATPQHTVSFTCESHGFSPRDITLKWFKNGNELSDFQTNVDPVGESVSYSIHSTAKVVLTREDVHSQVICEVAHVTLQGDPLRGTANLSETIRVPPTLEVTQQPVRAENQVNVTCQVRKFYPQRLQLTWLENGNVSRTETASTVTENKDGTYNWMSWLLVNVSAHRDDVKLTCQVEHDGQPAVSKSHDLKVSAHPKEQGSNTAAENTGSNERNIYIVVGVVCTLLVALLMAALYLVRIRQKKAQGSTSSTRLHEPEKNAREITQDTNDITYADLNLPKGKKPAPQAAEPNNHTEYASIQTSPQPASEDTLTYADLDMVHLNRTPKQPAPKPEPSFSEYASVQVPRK

Binder	Value Unit	EC50
AB25-LALA (AB25 humanized IgG1-kappa, LALA) (antibody, V domains shown) VH: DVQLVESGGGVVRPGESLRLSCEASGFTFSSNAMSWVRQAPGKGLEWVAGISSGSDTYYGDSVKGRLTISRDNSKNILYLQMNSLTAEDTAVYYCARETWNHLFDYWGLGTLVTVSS VL: SYELTQPPSVSVSPGQTARITCSGGSYSSYYYAWYQQKPGQAPVTLIYSDDKRPSNIPERFSGSSSGTTVTLTISGVQAEDEADYYCGGYDQSSYTNPFGGGTKLTVLR	µg/mL	0.18
3F9-LALA (3F9 mouse-human chimeric IgG1-kappa, LALA) (antibody, V domains shown) VH: EVKLVESGGGLVKPGGSLKLSCAASGFTFSSYAMSWVRQTPEKRLEWVATISDYGGSYTYYPDSVKGRFTISRDNAKYTLYLQMSSLRSEDTALYYCARPPYDDYYGGFAYWGQGTLVTVSA VL: DIVLTQSPASLAVSLGQRATISCRASKSVSSSGYSYMHWYQQKPGQPPKLLIYLASNLESGVPARFSGSGSGTDFTLNIHPVEEEDAATYYCQHNRELPCTFGGGTKLEIKR	µg/mL	1.49
AB115-LALA (AB115 human IgG1-kappa, LALA) (antibody, V domains shown) VH: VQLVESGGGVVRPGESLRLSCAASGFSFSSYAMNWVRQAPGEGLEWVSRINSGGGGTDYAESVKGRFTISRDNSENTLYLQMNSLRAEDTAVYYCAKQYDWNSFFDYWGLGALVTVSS VL: ETVLTQSPATLSVSPGERATLSCRASQTVGSKLAWHQQKPGQAPRLLIYDATNRATGISDRFSGSGSGTDFTLTISSLQTEDSAVYYCQQYYYWPPYRFGGGTKVEIKR	µg/mL	0.37
